- ASSAY_OVERVIEW: Relebactam population PK model (two-compartment plasma model with time-invariant ELF partition coefficient)
- Assay type: in vivo, human (healthy subjects)
- CONDITION_DETAILS: human, plasma, intravenous; population PK structural model; read-out: Volume of distribution in the central compartment (θVc)

| GIVEN_SMILES | Vd, L |
| --- | --- |
| O=C(NC1CCNCC1)[C@@H]1CC[C@@H]2CN1C(=O)N2OS(=O)(=O)O | 15.3 |

====

- ASSAY_OVERVIEW: Intrapulmonary (ELF, AC) and plasma pharmacokinetics after multiple-dose IV relebactam with imipenem-cilastatin, bronchoscopy/BAL, noncompartmental analysis
- Type: in vivo, human (healthy subjects)
- CONDITION_DETAILS: both sexes, human, intravenous; AC; mean profile; same regimen; read-out: AUC0–3

| GIVEN_SMILES | AUC(0-t) [µM·h] |
| --- | --- |
| O=C(NC1CCNCC1)[C@@H]1CC[C@@H]2CN1C(=O)N2OS(=O)(=O)O | 12.8 |

====

Overview of recorded Cmax for various compounds
- ASSAY_OVERVIEW: Intrapulmonary (ELF, AC) and plasma pharmacokinetics after multiple-dose IV relebactam with imipenem-cilastatin, bronchoscopy/BAL, noncompartmental analysis
- Format: in vivo, human (healthy subjects)
- CONDITION_DETAILS: both sexes, human, intravenous; plasma; mean profile; same regimen
OBSERVABLE: Cmax (µM)

| COMPOUND | RESULT_VALUE |
| --- | --- |
| C[C@@H](O)[C@H]1C(=O)N2C(C(=O)O)=C(SCCN=CN)C[C@H]12 [imipenem] | 99.6 |
| O=C(NC1CCNCC1)[C@@H]1CC[C@@H]2CN1C(=O)N2OS(=O)(=O)O [relebactam] | 47.9 |

====

- ASSAY_OVERVIEW: Intrapulmonary (ELF, AC) and plasma pharmacokinetics after multiple-dose IV relebactam with imipenem-cilastatin, bronchoscopy/BAL, noncompartmental analysis
- Type: in vivo, human (healthy subjects)
- CONDITION_DETAILS: both sexes, human, intravenous; ELF; mean profile; same regimen
Overview of recorded Tmax for various compounds

| GIVEN_SMILES | READOUT_UNITS | Tmax |
| --- | --- | --- |
| O=C(NC1CCNCC1)[C@@H]1CC[C@@H]2CN1C(=O)N2OS(=O)(=O)O | min | 30 |
| C[C@@H](O)[C@H]1C(=O)N2C(C(=O)O)=C(SCCN=CN)C[C@H]12 | min | 30 |

====

- ASSAY_OVERVIEW: Intrapulmonary (ELF, AC) and plasma pharmacokinetics after multiple-dose IV relebactam with imipenem-cilastatin, bronchoscopy/BAL, noncompartmental analysis
- Type: in vivo, human (healthy subjects)
- CONDITION_DETAILS: both sexes, human, AC/plasma, intravenous, same regimen; 1.0 h after last dose; n=4; read-out: AC/plasma concn GMR (90% CI)

| GIVEN_SMILES | Kp at 1 h |
| --- | --- |
| O=C(NC1CCNCC1)[C@@H]1CC[C@@H]2CN1C(=O)N2OS(=O)(=O)O | 0.25 |

====

Overview of recorded Kp at 0.5 h for various compounds
- ASSAY_OVERVIEW: Intrapulmonary (ELF, AC) and plasma pharmacokinetics after multiple-dose IV relebactam with imipenem-cilastatin, bronchoscopy/BAL, noncompartmental analysis
- Type: in vivo, human (healthy subjects)
- CONDITION_DETAILS: both sexes, human, ELF/plasma, iv, healthy subjects; relebactam 250 mg with imipenem-cilastatin 500 mg IV every 6 h, 5 doses; 0.5 h after last dose; n=4; read-out: ELF/plasma concn GMR (90% CI)

| GIVEN_SMILES | Kp at 0.5 h |
| --- | --- |
| C[C@@H](O)[C@H]1C(=O)N2C(C(=O)O)=C(SCCN=CN)C[C@H]12 | 0.32 |
| O=C(NC1CCNCC1)[C@@H]1CC[C@@H]2CN1C(=O)N2OS(=O)(=O)O | 0.32 |

====

- ASSAY_OVERVIEW: Intrapulmonary (ELF, AC) and plasma pharmacokinetics after multiple-dose IV relebactam with imipenem-cilastatin, bronchoscopy/BAL, noncompartmental analysis
- Format: in vivo, human (healthy subjects)
- CONDITION_DETAILS: both sexes, human, ELF, intravenous; same regimen; 3 h after last dose; n=4; read-out: concn in ELF, GM
Overview of recorded concentration at 3 h for various compounds

| GIVEN_SMILES | READOUT_UNITS | concentration at 3 h |
| --- | --- | --- |
| C[C@@H](O)[C@H]1C(=O)N2C(C(=O)O)=C(SCCN=CN)C[C@H]12 | µM | 5.99 |
| O=C(NC1CCNCC1)[C@@H]1CC[C@@H]2CN1C(=O)N2OS(=O)(=O)O | µM | 4.27 |

====

- ASSAY_OVERVIEW: Intrapulmonary (ELF, AC) and plasma pharmacokinetics after multiple-dose IV relebactam with imipenem-cilastatin, bronchoscopy/BAL, noncompartmental analysis
- Type: in vivo, human (healthy subjects)
- CONDITION_DETAILS: both sexes, human, ELF/plasma, intravenous, same regimen; 0.5 to 3 h after last dose; read-out: GMRs for ELF/plasma concentrations, range across time points
Overview of recorded Kp for various compounds

| GIVEN_SMILES | Kp |
| --- | --- |
| O=C(NC1CCNCC1)[C@@H]1CC[C@@H]2CN1C(=O)N2OS(=O)(=O)O | 0.32 to 0.51 |
| C[C@@H](O)[C@H]1C(=O)N2C(C(=O)O)=C(SCCN=CN)C[C@H]12 | 0.32 to 0.55 |

====

- ASSAY_OVERVIEW: Intrapulmonary (ELF, AC) and plasma pharmacokinetics after multiple-dose IV relebactam with imipenem-cilastatin, bronchoscopy/BAL, noncompartmental analysis
- Assay type: in vivo, human (healthy subjects)
- CONDITION_DETAILS: both sexes, human, intravenous; ELF; mean profile; same regimen; read-out: AUC0–3

| GIVEN_SMILES | AUC(0-t), µM·h |
| --- | --- |
| C[C@@H](O)[C@H]1C(=O)N2C(C(=O)O)=C(SCCN=CN)C[C@H]12 | 48.4 |
| O=C(NC1CCNCC1)[C@@H]1CC[C@@H]2CN1C(=O)N2OS(=O)(=O)O | 26.7 |

====

Overview of recorded Kp at 3 h for various compounds
- ASSAY_OVERVIEW: Intrapulmonary (ELF, AC) and plasma pharmacokinetics after multiple-dose IV relebactam with imipenem-cilastatin, bronchoscopy/BAL, noncompartmental analysis
- Assay type: in vivo, human (healthy subjects)
- CONDITION_DETAILS: both sexes, human, ELF/plasma, intravenous, same regimen; 3.0 h after last dose; n=4; read-out: ELF/plasma concn GMR (90% CI)

| GIVEN_SMILES | Kp at 3 h |
| --- | --- |
| C[C@@H](O)[C@H]1C(=O)N2C(C(=O)O)=C(SCCN=CN)C[C@H]12 | 0.5 |
| O=C(NC1CCNCC1)[C@@H]1CC[C@@H]2CN1C(=O)N2OS(=O)(=O)O | 0.46 |

====

- ASSAY_OVERVIEW: Intrapulmonary (ELF, AC) and plasma pharmacokinetics after multiple-dose IV relebactam with imipenem-cilastatin, bronchoscopy/BAL, noncompartmental analysis
- Assay type: in vivo, human (healthy subjects)
- CONDITION_DETAILS: both sexes, human, ELF, intravenous; same regimen; 1.5 h after last dose; n=4; read-out: concn in ELF, GM
Overview of recorded concentration at 1.5 h for various molecules

| GIVEN_SMILES | concentration at 1.5 h / µM |
| --- | --- |
| C[C@@H](O)[C@H]1C(=O)N2C(C(=O)O)=C(SCCN=CN)C[C@H]12 | 16.5 |
| O=C(NC1CCNCC1)[C@@H]1CC[C@@H]2CN1C(=O)N2OS(=O)(=O)O | 9.49 |

====

- ASSAY_OVERVIEW: Relebactam population PK model (two-compartment plasma model with time-invariant ELF partition coefficient)
- Assay type: in vivo, human (healthy subjects)
- CONDITION_DETAILS: human, ELF/unbound plasma, intravenous; based on free drug levels; read-out: time-invariant partition coefficient (ELF) estimated by the model

| GIVEN_SMILES | Kp |
| --- | --- |
| O=C(NC1CCNCC1)[C@@H]1CC[C@@H]2CN1C(=O)N2OS(=O)(=O)O | 0.55 |

====

Overview of recorded Kp at 1.5 h for various compounds
- ASSAY_OVERVIEW: Intrapulmonary (ELF, AC) and plasma pharmacokinetics after multiple-dose IV relebactam with imipenem-cilastatin, bronchoscopy/BAL, noncompartmental analysis
- Type: in vivo, human (healthy subjects)
- CONDITION_DETAILS: both sexes, human, ELF/plasma, intravenous, same regimen; 1.5 h after last dose; n=4; read-out: ELF/plasma concn GMR (90% CI)

| GIVEN_SMILES | Kp at 1.5 h |
| --- | --- |
| O=C(NC1CCNCC1)[C@@H]1CC[C@@H]2CN1C(=O)N2OS(=O)(=O)O | 0.51 |
| C[C@@H](O)[C@H]1C(=O)N2C(C(=O)O)=C(SCCN=CN)C[C@H]12 | 0.55 |

Just for reference, paper PMC5826112 is where these values come from.
